- SYSTEM: T1, DKKAA immunoglobulin binding domain of SpAKKAA (Staphylococcus aureus, UniProt A0A0H3K686 96-149)
- T1 construct: the construct is said to span residues 57-117 of mature SpA (61 residues), so its limits differ from the entry; not shown: N-terminal six histidyl tag (pET15b)
- PROTOCOL DETAILS: ELISA, antigen-coated plate, mAb titrated
MEASUREMENT KIND: Ka (M⁻¹)
Give bare numbers, in M⁻¹.

// below: answered binders
BINDER	MEASUREMENT KIND	OBSERVED RESULT
mAb 5A10 (antibody, V domains shown, Mouse IgG1 hybridoma mAb raised against SpAKKAA; also called 5A10-HRP; HRP-5A10) VH: EVKLVESGGGLVKPGGSLKLSCAASGFAFSNYDMSWVRQTPEKRLEWVATISSGGTYPYYPDSVKGRFTISRDNAKNTLYLQLSSLRSEDTALYYCARGGFLITTRDYYAMDYWGQGTSVTVSS VL: TIVLTQSPAIMSASPGEKVTMTCSASSSVSYMYWYQQKPGSSPRLLIYDTSNLASGVPVRFSGSGSGTSYSLTISRMEAEDAATYYCQQWSSYPPTFGGGTKLEIK	Ka	8.19e+09
mAb 2F2 (antibody, V domains shown, Mouse IgG2b hybridoma mAb) VH: VKLVESGGDLVKPGGSLKLSCAASRFTFSSYVMSWVRQTPEKRLEWVASIGSGGTTYYPDTVKGRFTISRDNARNILYLQMSSLRSDDTAMYYCTRGRGYGFAWYFDVWGAGTTVTVSS VL: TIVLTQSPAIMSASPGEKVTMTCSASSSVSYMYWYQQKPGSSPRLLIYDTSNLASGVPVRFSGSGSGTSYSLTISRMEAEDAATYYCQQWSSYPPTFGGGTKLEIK	Ka	1.76e+09
mAb 6D11 (antibody, V domains shown, Mouse IgG2a hybridoma mAb) VH: QVQLQQSGAELVRPGTSVKVSCKASGNAFTNYLIEWIKQRPGQGLEWIGVINPGSGITNYNEKFKGKATLTADKSSNTAYMQLSSLSSDDSAVYFCSGSANWFAYWGQGTLVTVSA VL: DIVLTQSPASLAVSLGQRASISCRASESVEYSGASLMQWYQHKPGQPPKLLIYAASNVESGVPVRFSGSGSGTDFSLNIHPVEEDDIAMYFCQQSRKVPSTFGGGTKLEIK	Ka	2.42e+09
mAb 7E2 (antibody, V domains shown, Mouse IgG1 hybridoma mAb) VH: QIQLVQSGPELKKPGETVKISCKASGYTFTDYSVHWVKQAPGKGLKWMAWINTATGEPTFADDFKGRFAFSLETSARTAYLQINNLKNEDTATYFCAPQLTGPFAYWGHGTLVTVSA VL: DIQMTQSPASLSASVGETVTITCRASENIHNYLAWYQQKQGKSPQLLVYNAKTLTDGVPSRFSGSGSGTQFSLKINSLQAGDFGSYYCQHSWSIPYTFGGGTRLQIR	Ka	3e+08

Input: Find the recorded Ka belonging to mAb 8E2 (antibody, V domains shown, Mouse IgG1 hybridoma mAb) VH: KVQLQQSGAGLVKPGASVKLSCKASGYTFTEYSIHWVKQSSGQGLEWIGWFYPGSGYIKYNEKFKDKATLTADKSSSTVYMEFSRLTSEDSAVYFCARHGYGNYVGYAMDYWGQGTSVTVSS VL: DIQMTQSPASLSASVGETVTITCRASEIIYSYLAWYQQKQGKSPQLLVYFAKTLAEGVPSRFSGSGSGTQFSLKINSLQPEDFGIYYCQHHYGTPYTFGGGTKLEIK and report it.
Output: 1.51e+09
